// reported IC50 for each item listed
# TARGET: T1, cynomolgus CX3CR1 (cynomolgus, UniProt P49238 1-355 (human entry))
# T1 construct: transiently expressed on HEK293T cells; also called cyCX3CR1; cyno CX3CR1
# T1 chain: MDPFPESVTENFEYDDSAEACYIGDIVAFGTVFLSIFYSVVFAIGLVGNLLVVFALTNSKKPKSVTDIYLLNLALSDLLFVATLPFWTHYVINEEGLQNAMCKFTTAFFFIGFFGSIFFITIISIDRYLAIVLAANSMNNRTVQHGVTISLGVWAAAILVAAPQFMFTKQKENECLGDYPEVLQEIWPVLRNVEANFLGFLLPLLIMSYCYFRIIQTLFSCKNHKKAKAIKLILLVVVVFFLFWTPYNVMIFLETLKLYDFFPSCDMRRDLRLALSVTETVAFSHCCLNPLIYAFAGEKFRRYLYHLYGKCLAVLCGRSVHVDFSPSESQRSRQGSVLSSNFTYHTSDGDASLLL
# PROTOCOL: A647-fractalkine competition FACS, HEK293T cynomolgus CX3CR1
Give a bare numeral; the unit µM is implied.

[[record]]
binder = "CX3CR1BIIPMP61F11 (VHH, not shown: C-terminal c-myc and His6 tags) VHH: KVQLVESGGGSVQAGESLRLSCAASGSIFSSNAMAWYRQPPGKQRDLVAAINSVGITKYADSVKGRFTIFRDNAKNTVYLQMNSLKPEDTAVYYCTSDPRRGWDTRYWGQGTQVTVSS"
endpoint_name = "IC50"
value_measured = 0.16


Now let's try a different one.
## Task Which IC50 value belongs to CX3CR1BIIPMP61G4 (VHH, also called 61G04; not shown: C-terminal c-myc and His6 tags) VHH: KVQLVESGGGSVQAGGSLRLSCAASGSIFSSNAMAWYRQAPGKQRDLVAAINSVGITKYADSVKGRFTISRDNAKNTVYLQMMSLKPEDTAVYYCTSDPRRGWDTRYWGQGTQVTVSS ?
## Result 0.2
